Values compiled from patent US20240398773A1.

assay: Study CL-001 single-dose escalation in healthy subjects, plasma PK; assay type: in vivo, human; conditions: both sexes, human, plasma, po, 40 mg, Cohort 4, single oral 40 mg, fasted
test.readout: half-life
Answer as a quantity: numeral, then unit.

Field request: half-life | item: O[C@@](Cn1cnnn1)(c1ccc(F)cc1F)C(F)(F)c1ccc(-c2ccc(OCC(F)(F)F)cc2)cn1 [Oteseconazole, oteseconazole]
22.8 days

====

assay: Study CL-001 single-dose escalation in healthy subjects, plasma PK; type: in vivo, human; settings: both sexes, human, plasma, po, 40 mg, Cohort 4, single oral 40 mg, fasted; mean
test.readout: AUC(0-inf)

Which value of AUC(0-inf) has been reported for O[C@@](Cn1cnnn1)(c1ccc(F)cc1F)C(F)(F)c1ccc(-c2ccc(OCC(F)(F)F)cc2)cn1 in the records?
35000 ng·h/mL
